This section presents molecules with their documented remaining activity at 1 µM values.
TARGET: Hs_CDK5/p25 (Homo sapiens)
PROTOCOL DESCRIPTION: primary screening, short panel of mammalian kinases
Format: biochemical
TEST CONDITIONS: compound 1 μM; ATP 10 µM; means, n = 2; read-out: Residual kinase activity Hs_CDK5/p25
VALUE TYPE: remaining activity at 1 µM (%)

>  <MOLECULE>
COC(=O)c1ccc(-c2cccc(Nc3ncc4cccc(OCc5cn(-c6ccc(C)cc6[N+](=O)[O-])nn5)c4n3)c2)cc1

>  <MEASURED>
70

$$$$
>  <MOLECULE>
Cc1ccc(-n2cc(COc3cccc4cnc(Nc5cc(Cl)cc(-c6ccc(C(=O)O)cc6)c5)nc34)nn2)c([N+](=O)[O-])c1 [Compound 10b]

>  <MEASURED>
53

$$$$
>  <MOLECULE>
Cc1ccc(-n2cc(COc3cccc4cnc(Nc5cccc(-c6cccc(C(=O)O)c6)c5)nc34)nn2)c([N+](=O)[O-])c1 [Compound 13a]

>  <MEASURED>
62

$$$$

* * *

TARGET: Mm_CLK1 (Mus musculus)
Sequence (P22518 whole entry): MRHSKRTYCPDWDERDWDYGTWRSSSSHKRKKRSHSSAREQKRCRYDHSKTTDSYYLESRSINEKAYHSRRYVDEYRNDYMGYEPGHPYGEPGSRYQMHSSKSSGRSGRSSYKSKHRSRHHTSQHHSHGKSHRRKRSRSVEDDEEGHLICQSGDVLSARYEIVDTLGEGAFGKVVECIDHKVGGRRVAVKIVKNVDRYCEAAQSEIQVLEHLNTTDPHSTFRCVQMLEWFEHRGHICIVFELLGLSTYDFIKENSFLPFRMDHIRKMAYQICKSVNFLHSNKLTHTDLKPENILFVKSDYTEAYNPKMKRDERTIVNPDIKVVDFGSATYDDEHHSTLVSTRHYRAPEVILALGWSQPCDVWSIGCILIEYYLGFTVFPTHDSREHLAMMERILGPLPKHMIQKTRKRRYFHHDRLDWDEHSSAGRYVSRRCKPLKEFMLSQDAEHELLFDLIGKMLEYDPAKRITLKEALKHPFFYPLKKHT
PROTOCOL DESCRIPTION: radiometric γ33P-ATP kinase assay (Eurofins)
Assay type: biochemical
TEST CONDITIONS: ratio of IC50 values
VALUE TYPE: Mm_CLK3/Mm_CLK1

>  <MOLECULE>
Cc1ccc(-n2cc(COc3cccc4cnc(Nc5cc(Cl)cc(-c6cccc(C(=O)O)c6)c5)nc34)nn2)c([N+](=O)[O-])c1 [Compound 13b]

>  <TARGET>
Mm_CLK1 (Mus musculus)

>  <MEASURED>
2.38

$$$$
>  <MOLECULE>
Cc1ccc(-n2cc(COc3cccc4cnc(Nc5cc(Cl)cc(-c6ccc(C(=O)O)cc6)c5)nc34)nn2)c([N+](=O)[O-])c1 [Compound 10b]

>  <TARGET>
Mm_CLK1 (Mus musculus)

>  <MEASURED>
4.04

$$$$
>  <MOLECULE>
Cc1ccc(-n2cc(COc3cccc4cnc(Nc5cccc(-c6ccc(C(=O)O)cc6)c5)nc34)nn2)c([N+](=O)[O-])c1 [Compound 10a]

>  <TARGET>
Mm_CLK1 (Mus musculus)

>  <MEASURED>
4.18

$$$$
>  <MOLECULE>
Cc1ccc(-n2cc(COc3cccc4cnc(Nc5cccc(-c6cccc(C(=O)O)c6)c5)nc34)nn2)c([N+](=O)[O-])c1 [Compound 13a]

>  <TARGET>
Mm_CLK1 (Mus musculus)

>  <MEASURED>
2.43

$$$$

* * *

This section presents molecules with their documented remaining activity at 1 µM values.
TARGET: Hs_CDK5/p25 (Homo sapiens, UniProt Q00535)
Sequence (Q00535 whole entry): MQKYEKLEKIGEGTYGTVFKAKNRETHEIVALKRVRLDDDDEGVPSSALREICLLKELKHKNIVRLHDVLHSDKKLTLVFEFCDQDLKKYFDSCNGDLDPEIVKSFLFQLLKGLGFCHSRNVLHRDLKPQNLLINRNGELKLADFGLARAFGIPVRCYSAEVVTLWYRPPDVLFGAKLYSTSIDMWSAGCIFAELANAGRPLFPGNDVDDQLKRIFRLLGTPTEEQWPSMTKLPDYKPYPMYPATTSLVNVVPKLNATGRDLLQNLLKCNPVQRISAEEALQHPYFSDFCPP
Sequence (Q15078 99-307 partner limits assumed): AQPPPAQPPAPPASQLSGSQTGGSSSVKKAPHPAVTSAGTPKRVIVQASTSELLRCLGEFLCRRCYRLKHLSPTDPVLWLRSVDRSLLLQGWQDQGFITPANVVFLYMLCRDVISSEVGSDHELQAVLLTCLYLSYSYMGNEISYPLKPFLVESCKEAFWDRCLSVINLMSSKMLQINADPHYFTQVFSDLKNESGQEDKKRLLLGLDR
PROTOCOL DESCRIPTION: primary screening, short panel of mammalian kinases
Type: biochemical
TEST CONDITIONS: compound 1 μM; ATP 10 µM; means, n = 2; read-out: Residual kinase activity Hs_CDK5/p25
VALUE TYPE: remaining activity at 1 µM (%)

>  <MOLECULE>
COC(=O)c1cccc(-c2cc(Cl)cc(Nc3ncc4cccc(OCc5cn(-c6ccc(C)cc6[N+](=O)[O-])nn5)c4n3)c2)c1 [Compound 12b]

>  <VALUE TYPE>
remaining activity at 1 µM

>  <MEASURED>
85

$$$$
>  <MOLECULE>
COC(=O)c1ccc(-c2cc(Cl)cc(Nc3ncc4cccc(OCc5cn(-c6ccc(C)cc6[N+](=O)[O-])nn5)c4n3)c2)cc1 [Compound 9b]

>  <VALUE TYPE>
remaining activity at 1 µM

>  <MEASURED>
74

$$$$
>  <MOLECULE>
Cc1ccc(-n2cc(COc3cccc4cnc(Nc5cccc(-c6ccc(C(=O)O)cc6)c5)nc34)nn2)c([N+](=O)[O-])c1 [Compound 10a]

>  <VALUE TYPE>
remaining activity at 1 µM

>  <MEASURED>
61

$$$$
>  <MOLECULE>
Cc1ccc(-n2cc(COc3cccc4cnc(Nc5cc(Cl)cc(-c6cccc(C(=O)O)c6)c5)nc34)nn2)c([N+](=O)[O-])c1 [Compound 13b]

>  <VALUE TYPE>
remaining activity at 1 µM

>  <MEASURED>
92

$$$$
